# credit: patent EP0705258B1

Each entry below carries its recorded IC50.
# System: Zymosan Stimulated Macrophages
# procedure_summary: Inhibition of Arachidonic Acid Release from Zymosan Stimulated Macrophages (Test D)
# Assay type: cell-based, MF1 mice
# condition_details: Mus musculus, Macrophage, tested at 100, 50, 20, 10, 5 and 1 µM
# From the text: Female MF1 mice (weighing 20 to 25 g) were killed using a rising concentration of CO2. The mice were laid on their backs and the abdomens wiped with 70% alcohol. The skin was pulled back, exposing the peritoneal wall. […] The extracts from all the mice were pooled and this pooled cell suspension was counted using a Coulter counter and adjusted to a final cell count of 1 - 1.3 x 10^6 cells/ml prior to labelling with [^3H]-arachidonic acid. […]

| compound | target_entity | IC50 |
| --- | --- | --- |
| c1ccc(CCCN2CCCC(CCn3ccnc3)C2)cc1 (stereo not shown) | Zymosan Stimulated Macrophages | 58 µM |
| Cc1nccn1CCC1CCN(CCCc2ccccc2)CC1 | Zymosan Stimulated Macrophages | 21 µM |
| c1ccc(CCCN2CCC(CCn3nccn3)CC2)cc1 | Zymosan Stimulated Macrophages | 100 µM |
| Cc1nc(Cl)c(Cl)n1CCC1CCN(CCCc2ccccc2)CC1 | Zymosan Stimulated Macrophages | 31 µM |
| Cl.Cl.c1ccc(CCCN2CCC(CCn3ccnc3)CC2)cc1 [Example 98, dihydrochloride] | Zymosan Stimulated Macrophages | 62 µM |
| c1ccc(CCCN2CCC(CCn3ccnc3-c3ccccc3)CC2)cc1 | Zymosan Stimulated Macrophages | 14 µM |
| c1ccc(CCCN2CCC(CCn3cnc4ccccc43)CC2)cc1 | Zymosan Stimulated Macrophages | 34 µM |
| c1ccc(CCCN2CCCCC2CCn2ccnc2)cc1 (stereo not shown) | Zymosan Stimulated Macrophages | 27 µM |
| CC(Cn1ccnc1)C1CCN(CCCc2ccccc2)CC1 (stereo not shown) | Zymosan Stimulated Macrophages | 33 µM |
| c1ccc(CCN2CCC(CCn3ccnc3)CC2)cc1 | Zymosan Stimulated Macrophages | 27 µM |

###

As shown below, each of these molecules has a reported minimal effective dose value.
# Test system: tumour necrosis factor-α (TNF-α)
# procedure_summary: Mouse Tumour Necrosis Factor Test (Test B), mouse endotoxin shock model, serum TNF-α by ELISA
# Type: in vivo, BALB/c mice
# condition_details: Mus musculus; minimum effective oral dose giving significant reduction in serum TNF-α of ≥35%; dosed 2 h before LPS i.p.; ≤ = active at dose given but not tested at lower doses; read-out: MTNF:MED
# Description: Preferred compounds of the present invention are active in an in-vivo test which determines the ability of the compounds to inhibit the release of tumour necrosis factor-α (TNF-α) in a mouse endotoxin shock model (Test B). This model is similar to that described by Zuckerman and Bendele (1989), Infection and Immunity 57 (10): p3009-3013. […]

| molecule | target_entity | inequality_symbol | minimal effective dose (mg/kg) |
| --- | --- | --- | --- |
| c1ccc2c(c1)CCC(CN1CCC(CCn3ccnc3)CC1)C2 (centres unmarked) | tumour necrosis factor-α (TNF-α) | = | 30 |
| c1ccc(CCCN2CCC(CCCn3ccnc3)CC2)cc1 | tumour necrosis factor-α (TNF-α) | ≤ | 100 |
| c1ccc(CCCN2CCCCC2CCn2ccnc2)cc1 (centres unmarked) | tumour necrosis factor-α (TNF-α) | = | 100 |
| Cc1nccn1CCC1CCN(C(=O)CCc2ccc(Cl)cc2)CC1 | tumour necrosis factor-α (TNF-α) | = | 100 |
| Cc1ncn(CCC2CCN(CCCc3ccccc3)CC2)c1C | tumour necrosis factor-α (TNF-α) | = | 30 |

###

This listing pairs molecules with measured minimal effective dose.
# Tested on: tumour necrosis factor-α (TNF-α)
# procedure_summary: Mouse Tumour Necrosis Factor Test (Test B), mouse endotoxin shock model, serum TNF-α by ELISA
# Type: in vivo, BALB/c mice
# condition_details: Mus musculus; minimum effective oral dose giving significant reduction in serum TNF-α of ≥35%; dosed 2 h before LPS i.p.; ≤ = active at dose given but not tested at lower doses; read-out: MTNF:MED

| smi | minimal effective dose |
| --- | --- |
| O=C(CCN1CCC(CCn2ccnc2)CC1)c1ccccc1 | ≤ 30 mg/kg |
| c1ccc(SCCN2CCC(CCn3ccnc3)CC2)cc1 | ≤ 10 mg/kg |
| c1ccc(CCCN2CCC(Cn3ccnc3)CC2)cc1 | ≤ 100 mg/kg |
| c1ccc(CCCN2CCC(CCn3cncn3)CC2)cc1 | ≤ 10 mg/kg |
| Cc1ccc(CCCN2CCC(CCn3ccnc3)CC2)cc1 | ≤ 30 mg/kg |
